Experimental protocol: Cytotoxicity on uninfected MT-4 cells (viable cell count, trypan blue dye exclusion)
Assay type: cell-based
Condition label: human, at 120 mg/ml (so in the source), 3 or 6 days, read-out: cells survive
Measurement name: viability

Notebook: CN[C@@H]1[C@H](O[C@@H]2OC[C@@H](O)[C@H](O)[C@H]2O)[C@@H](O)[C@H](O[C@H]2c3cc(C)c(C(=O)N[C@H](C)C(=O)O)c(O)c3-c3c(cc4c(c3O)C(=O)c3cc(OC)cc(O)c3C4=O)[C@@H]2O)O[C@@H]1C [Compound No. 28567] , viability read as 60 to 70%

* * *

Experimental protocol: Acute toxicity in mice after single intravenous and intramuscular administrations
Condition label: mouse, in vivo, iv; read-out: LD₅₀
Procedure: The acute toxicity of Compound No. 28567 was determined in mice after single intravenous and intramuscular administrations.
Measurement name: LD50 (mg/kg)
Entry rule: numbers only, all in mg/kg.

Value of measured LD50 for the entry `CN[C@@H]1[C@H](O[C@@H]2OC[C@@H](O)[C@H](O)[C@H]2O)[C@@H](O)[C@H](O[C@H]2c3cc(C)c(C(=O)N[C@H](C)C(=O)O)c(O)c3-c3c(cc4c(c3O)C(=O)c3cc(OC)cc(O)c3C4=O)[C@@H]2O)O[C@@H]1C` : 140
